Values compiled from paper PMC11062899.

target: UniProt P00734; experiment: Sub-library screen for active and permeable cyclic peptides (PAMPA plus thrombin inhibition); format: biochemical; conditions: PAMPA acceptor well after 14 h, 5 μM donor; crude; slopes normalized to DMSO
recordedEndpoint: Residual thrombin activity: Top sample

[[record]]
smilesrepresentation = "O=C1CSCCC[C@H](NC(=O)c2ccc(Cl)s2)C(=O)N[C@@H](Cc2ccccc2)C(=O)N2CCC[C@@H]2CC(=O)NCCSC1"
reportedmeasurement = 73.4

[[record]]
smilesrepresentation = "N#Cc1ccc(C[C@@H]2NC(=O)[C@@H](NC(=O)c3ccc(Cl)s3)CCCSCc3cccc(n3)CSCCNC(=O)C[C@H]3CCCN3C2=O)cc1"
reportedmeasurement = 93.2

[[record]]
smilesrepresentation = "Cc1cccc(C[C@@H]2NC(=O)[C@@H](NC(=O)c3ccc(Cl)s3)CSCc3ccccc3CSCCNC(=O)C[C@H]3CCCN3C2=O)c1"
reportedmeasurement = 93.2


----------
molecular target: human α-thrombin (Homo sapiens, UniProt P00734); assay: Sub-library screen for active and permeable cyclic peptides (PAMPA plus thrombin inhibition); format: biochemical; settings: PAMPA acceptor well after 14 h, 5 μM donor; crude; slopes normalized to DMSO
Residual thrombin activity: Top sample for assorted molecules
recordedEndpoint: Residual thrombin activity: Top sample

[[record]]
molecule = "CN1C(=O)[C@@H](NC(=O)c2ccc(Cl)s2)CCCSCc2ccccc2CSCCNC(=O)C[C@H]2CCCN2C(=O)[C@@H]1Cc1ccccc1 [C3-X32-L6]"
reportedmeasurement = 99.5

[[record]]
molecule = "O=C1C[C@H]2CCCN2C(=O)[C@@H](Cc2ccccc2)NC(=O)[C@@H](NC(=O)c2ccc(Cl)s2)CCCSCCS(=O)(=O)CCSCCN1 [C3-X31-L2]"
reportedmeasurement = 103.5

[[record]]
molecule = "O=C1C[C@H]2CCCN2C(=O)[C@@H](Cc2ccccc2)NC(=O)[C@@H](NC(=O)c2ccc(Cl)s2)CCSCc2cccc(n2)CSCCN1 [C2-X31-L1]"
reportedmeasurement = 93.0

[[record]]
molecule = "O=C1C[C@H]2CCCN2C(=O)[C@H](Cc2ccc(C(F)(F)F)cc2)NC(=O)[C@@H](NC(=O)c2ccc(Cl)s2)CCSCc2cccc(n2)CSCCN1 [C2-X36-L1]"
reportedmeasurement = 95.5

[[record]]
molecule = "Cc1cccc(C[C@@H]2NC(=O)[C@@H](NC(=O)c3ccc(Cl)s3)CSCc3cccc(n3)CSCCNC(=O)C[C@H]3CCCN3C2=O)c1 [C1-X37-L1]"
reportedmeasurement = 86.5

[[record]]
molecule = "O=C1C[C@H]2CCCN2C(=O)[C@H](Cc2ccccc2)NC(=O)[C@@H](NC(=O)c2ccc(Cl)s2)CSCc2ccc(cc2)CSCCN1 [C1-X5-L3]"
reportedmeasurement = 88.7

[[record]]
molecule = "O=C1C[C@H]2CCCN2C(=O)[C@H](Cc2ccc(C(F)(F)F)cc2)NC(=O)[C@@H](NC(=O)c2ccc(Cl)s2)CSCc2cccc(c2)CSCCN1 [C1-X36-L5]"
reportedmeasurement = 101.6

[[record]]
molecule = "O=C1CSCCC[C@H](NC(=O)c2ccc(Cl)s2)C(=O)N[C@H](Cc2ccccc2)C(=O)N2CCC[C@@H]2CC(=O)NCCSC1 [C3-X31-L7]"
reportedmeasurement = 102.1

[[record]]
molecule = "Cc1cccc(C[C@@H]2NC(=O)[C@@H](NC(=O)c3ccc(Cl)s3)CCSCc3cccc(c3)CSCCNC(=O)C[C@H]3CCCN3C2=O)c1 [C2-X37-L5]"
reportedmeasurement = 104.6

[[record]]
molecule = "O=C1C[C@H]2CCCN2C(=O)[C@H](Cc2ccc(C(F)(F)F)cc2)NC(=O)[C@@H](NC(=O)c2ccc(Cl)s2)CCCSCc2ccc(cc2)CSCCN1 [C3-X36-L3]"
reportedmeasurement = 101.9

[[record]]
molecule = "O=C1C[C@H]2CCCN2C(=O)[C@H](Cc2ccc(Cl)cc2)NC(=O)[C@@H](NC(=O)c2ccc(Cl)s2)CSCc2ccc(cc2)CSCCN1 [C1-X34-L3]"
reportedmeasurement = 96.0

[[record]]
molecule = "O=C1C[C@H]2CCCN2C(=O)[C@H](Cc2ccc(Cl)cc2)NC(=O)[C@@H](NC(=O)c2ccc(Cl)s2)CCSC/C=C/CSCCN1 [C2-X34-L4]"
reportedmeasurement = 98.6

[[record]]
molecule = "COc1ccc(C[C@@H]2NC(=O)[C@@H](NC(=O)c3ccc(Cl)s3)CSCC(=O)CSCCNC(=O)C[C@H]3CCCN3C2=O)cc1 [C1-X33-L7]"
reportedmeasurement = 97.9

[[record]]
molecule = "O=C1C[C@H]2CCCN2C(=O)[C@H](Cc2ccc(C(F)(F)F)cc2)NC(=O)[C@@H](NC(=O)c2ccc(Cl)s2)CCSCCS(=O)(=O)CCSCCN1 [C2-X36-L2]"
reportedmeasurement = 101.5

[[record]]
molecule = "N#Cc1ccc(C[C@@H]2NC(=O)[C@@H](NC(=O)c3ccc(Cl)s3)CCCSCc3cccc(c3)CSCCNC(=O)C[C@H]3CCCN3C2=O)cc1 [C3-X35-L5]"
reportedmeasurement = 107.1

[[record]]
molecule = "O=C1CSCCC[C@H](NC(=O)c2ccc(Cl)s2)C(=O)N[C@@H](Cc2ccc(Cl)cc2)C(=O)N2CCC[C@@H]2CC(=O)NCCSC1 [C3-X34-L7]"
reportedmeasurement = 103.7

[[record]]
molecule = "O=C1CSCCNC(=O)C[C@H]2CCCN2C(=O)[C@H](Cc2ccc(Cl)cc2)NC(=O)[C@@H](NC(=O)c2ccc(Cl)s2)CSC1 [C1-X34-L7]"
reportedmeasurement = 100.2

[[record]]
molecule = "CN1C(=O)[C@@H](NC(=O)c2ccc(Cl)s2)CCSC/C=C/CSCCNC(=O)C[C@H]2CCCN2C(=O)[C@@H]1Cc1ccccc1 [C2-X32-L4]"
reportedmeasurement = 99.0

[[record]]
molecule = "COc1ccc(C[C@@H]2NC(=O)[C@@H](NC(=O)c3ccc(Cl)s3)CSCc3cccc(n3)CSCCNC(=O)C[C@H]3CCCN3C2=O)cc1 [C1-X33-L1]"
reportedmeasurement = 92.7

[[record]]
molecule = "COc1ccc(C[C@@H]2NC(=O)[C@@H](NC(=O)c3ccc(Cl)s3)CCSCc3cccc(n3)CSCCNC(=O)C[C@H]3CCCN3C2=O)cc1 [C2-X33-L1]"
reportedmeasurement = 95.4

[[record]]
molecule = "O=C1C[C@H]2CCCN2C(=O)[C@@H](Cc2ccccc2)NC(=O)[C@@H](NC(=O)c2ccc(Cl)s2)CSCc2cccc(n2)CSCCN1 [C1-X31-L1]"
reportedmeasurement = 89.8

[[record]]
molecule = "N#Cc1ccc(C[C@@H]2NC(=O)[C@@H](NC(=O)c3ccc(Cl)s3)CSCc3cccc(n3)CSCCNC(=O)C[C@H]3CCCN3C2=O)cc1 [C1-X35-L1]"
reportedmeasurement = 91.5

[[record]]
molecule = "Cc1cccc(C[C@@H]2NC(=O)[C@@H](NC(=O)c3ccc(Cl)s3)CCCSCc3cccc(n3)CSCCNC(=O)C[C@H]3CCCN3C2=O)c1 [C3-X37-L1]"
reportedmeasurement = 78.3

[[record]]
molecule = "O=C1C[C@H]2CCCN2C(=O)[C@@H](Cc2ccccc2)NC(=O)[C@@H](NC(=O)c2ccc(Cl)s2)CCCSC/C=C/CSCCN1 [C3-X31-L4]"
reportedmeasurement = 100.8


----------
assay: Metabolic stability in rat liver microsomes (RLMs); details: rat, microsomes, Half Life (min) R1, RLM metabolic stability; replicate R1; 0-60 min
recordedEndpoint: half-life

[[record]]
compound = "O=C1CCSCc2cccc(n2)CSCCNC(=O)[C@H](CO)NC(=O)[C@@H](NC(=O)c2ccc(Cl)s2)CN1"
reportedmeasurement = "9.3 min"

[[record]]
compound = "O=C1NCCSCc2cccc(n2)CSC[C@H](NC(=O)c2ccc(Cl)s2)C(=O)N[C@@H](CO)C(=O)NCc2cccc1c2"
reportedmeasurement = "28.7 min"

[[record]]
compound = "O=C(N[C@H]1CSCc2cccc(n2)CSCCNC(=O)[C@H](Cc2ccccn2)NC(=O)C2(CCCC2)NC1=O)c1ccc(Cl)s1"
reportedmeasurement = "17.1 min"

[[record]]
compound = "O=C1CC2CCN(CC2)C(=O)[C@H](Cc2ccccc2)NC(=O)[C@@H](NC(=O)c2ccc(Cl)s2)CSCCS(=O)(=O)CCSCCN1"
reportedmeasurement = "7.4 min"

[[record]]
compound = "O=C(N[C@H]1CSCCS(=O)(=O)CCSCCNC(=O)C2(CC2)CNC(=O)[C@H](Cc2ccccc2)NC1=O)c1ccc(Cl)s1"
reportedmeasurement = "22.7 min"

[[record]]
compound = "O=C1CCSC/C=C/CSCCNC(=O)[C@H](CNC(=O)c2ccc(Cl)s2)NC(=O)[C@H](Cc2ccccn2)N1"
reportedmeasurement = "5.21 min"

[[record]]
compound = "C[C@@H]1NC(=O)[C@@H](NC(=O)c2ccc(Cl)s2)CNC(=O)CCSCc2cccc(n2)CSCCNC1=O"
reportedmeasurement = "11.8 min"

[[record]]
compound = "O=C1C[C@H]2CCCN2C(=O)[C@H](Cc2ccccn2)NC(=O)[C@@H](NC(=O)c2ccc(Cl)s2)CSCCS(=O)(=O)CCSCCN1"
reportedmeasurement = "15.4 min"

[[record]]
compound = "O=C1C[C@H]2CCCN2C(=O)[C@H](Cc2ccccc2)NC(=O)[C@@H](NC(=O)c2ccc(Cl)s2)CSCCS(=O)(=O)CCSCCN1 [peptide 11]"
reportedmeasurement = "14.9 min"

[[record]]
compound = "O=C1CC2CCN(CC2)C(=O)[C@H](Cc2ccccc2)NC(=O)[C@@H](NC(=O)c2ccc(Cl)s2)CSCc2cccc(n2)CSCCN1"
reportedmeasurement = "15.8 min"

[[record]]
compound = "O=C1NCCSCc2cccc(n2)CSCCC(=O)N2CCC[C@H]2C(=O)N2CCN(C(=O)c3ccc(Cl)s3)CC12 (stereo partly shown)"
reportedmeasurement = "18.8 min"

[[record]]
compound = "O=C(N[C@H]1CSCc2cccc(n2)CSCCNC(=O)[C@H](Cc2c[nH]cn2)NC(=O)C2(CCCC2)NC1=O)c1ccc(Cl)s1"
reportedmeasurement = "> 60 min"

[[record]]
compound = "O=C1CCSCc2ccc(cc2)CSCCNC(=O)[C@H](CNC(=O)c2ccc(Cl)s2)NC(=O)[C@H](Cc2ccccn2)N1"
reportedmeasurement = "13.6 min"

